# credit: patent US8410094B2

# SYSTEM: UniProt P51681
# PROTOCOL_TEXT: Inhibition of CCR5: [35S]GTPγS binding assays (filtration, SPA-WGA) and calcium influx assay, 10 nM RANTES, CHO-CCR5
# CONDITION_LABEL: inhibition of GTPγS binding induced by 10 nM RANTES, CHO-CCR5
pIC50: −log10 of the molar value.
In this section, each of the molecules is paired with its reported pIC50.
EXPERIMENTAL_ENDPOINT: pIC50

| COMPOUND_SMILES | REPORTED_RESULT |
| --- | --- |
| CC(=O)N1CCC(C(=O)N(CCCN2[C@@H]3CC[C@H]2C[C@H](NC(=O)Cc2ccc(O)cc2)C3)c2ccc(C)c(Cl)c2)CC1 | 7.32 |
| CC(=O)N1CCC(C(=O)N(CCCN2[C@@H]3CC[C@H]2C[C@H](NC(=O)OCc2ccccc2)C3)c2ccc(C)c(Cl)c2)CC1 | 7.74 |
| CC(=O)N1CCC(C(=O)N(CCCN2[C@@H]3CC[C@H]2C[C@H](NC(=O)Cc2ccc(F)cc2)C3)c2ccc(C)c(Cl)c2)CC1 | 7.51 |

* * *

# SYSTEM: CCR5 (Homo sapiens, UniProt P51681)
# Sequence (P51681 whole entry): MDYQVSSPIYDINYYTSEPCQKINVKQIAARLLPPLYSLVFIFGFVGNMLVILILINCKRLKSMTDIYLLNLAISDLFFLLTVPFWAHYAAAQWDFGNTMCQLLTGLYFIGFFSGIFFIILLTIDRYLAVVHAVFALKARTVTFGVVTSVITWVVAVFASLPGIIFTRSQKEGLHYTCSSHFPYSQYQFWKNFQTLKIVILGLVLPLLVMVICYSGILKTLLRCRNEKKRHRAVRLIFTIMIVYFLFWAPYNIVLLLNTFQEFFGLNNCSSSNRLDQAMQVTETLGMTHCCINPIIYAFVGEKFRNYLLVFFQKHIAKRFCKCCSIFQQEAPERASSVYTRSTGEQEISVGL
# PROTOCOL_TEXT: Inhibition of CCR5: [35S]GTPγS binding assays (filtration, SPA-WGA) and calcium influx assay, 10 nM RANTES, CHO-CCR5
# CONDITION_LABEL: inhibition of GTPγS binding induced by 10 nM RANTES, CHO-CCR5

| COMPOUND | IC50 / nM |
| --- | --- |
| CC(=O)N1CCC(C(=O)N(CCCN2C3CCC2CC(NC(=O)CC24CC5CC(CC(C5)C2)C4)C3)c2ccc(C)c(Cl)c2)CC1 (stereo not drawn) [Compound 7e] | 209 |
| CC(=O)N1CCC(C(=O)N(CCCN2[C@@H]3CC[C@H]2C[C@H](NS(=O)(=O)c2cccs2)C3)c2ccc(C)c(Cl)c2)CC1 [Compound 9f] | 2.53 |
| CC(=O)N1CCC(C(=O)N(CCCN2[C@@H]3CC[C@H]2C[C@H](NS(=O)(=O)c2ccc([N+](=O)[O-])cc2)C3)c2ccc(C)c(Cl)c2)CC1 [Compound 9c] | 3.3 |

* * *

In this section, each of the compounds is paired with its reported inhibition at 0.3 µM.
# SYSTEM: CCR5 (Homo sapiens)
# Construct: expressed in transfected cells
# PROTOCOL_TEXT: Inhibition of CCR5: [35S]GTPγS binding assays (filtration, SPA-WGA) and calcium influx assay, 10 nM RANTES, CHO-CCR5
# Type: biochemical
# CONDITION_LABEL: compound at 300 nM; 10 nM RANTES; read-out: inhibition against CCR5 @300 nM
EXPERIMENTAL_ENDPOINT: inhibition at 0.3 µM (%)

| COMPOUND | SYSTEM | EXPERIMENTAL_ENDPOINT | REPORTED_RESULT |
| --- | --- | --- | --- |
| CC(=O)N1CCC(C(=O)N(CCCN2C3CCC2CC(NC(=O)CCc2cccnc2)C3)c2ccc(C)c(Cl)c2)CC1 (stereo not drawn) | CCR5 (Homo sapiens) | inhibition at 0.3 µM | 76.7 |
| CC(=O)N1CCC(C(=O)N(CCCN2C3CCC2CC(n2c(C)nnc2C(C)C)C3)c2ccc(C)c(Cl)c2)CC1 (stereo not drawn) | CCR5 (Homo sapiens) | inhibition at 0.3 µM | 98.4 |
| Cc1ccc(S(=O)(=O)NC2CC3CCC(C2)N3CCCN(C(=O)C2CCCCC2)c2ccc(C)c(Cl)c2)cc1 (stereo not drawn) [Compound 15a] | CCR5 (Homo sapiens) | inhibition at 0.3 µM | 100 |
| CC(=O)N1CCC(C(=O)N(CCCN2C3CCC2CC(NC(=O)c2ccc(C(F)(F)F)cc2)C3)c2ccc(C)c(Cl)c2)CC1 (stereo not drawn) | CCR5 (Homo sapiens) | inhibition at 0.3 µM | 96.3 |
| CC(=O)N1CCC(C(=O)N(CCCN2C3CCC2CC(NC(=O)c2cccnc2)C3)c2ccc(C)c(Cl)c2)CC1 (stereo not drawn) | CCR5 (Homo sapiens) | inhibition at 0.3 µM | 15.6 |
| CC(=O)N1CCC(C(=O)N(CCCN2C3CCC2CC(NC(=O)Nc2ccccc2)C3)c2ccc(C)c(Cl)c2)CC1 (stereo not drawn) [Compound 10c] | CCR5 (Homo sapiens) | inhibition at 0.3 µM | 41.9 |
